The reported numbers originate from patent US10040781B2.

- target of assay: TBK1 (Homo sapiens (Human))
- Sequence (Q9UHD2 whole entry): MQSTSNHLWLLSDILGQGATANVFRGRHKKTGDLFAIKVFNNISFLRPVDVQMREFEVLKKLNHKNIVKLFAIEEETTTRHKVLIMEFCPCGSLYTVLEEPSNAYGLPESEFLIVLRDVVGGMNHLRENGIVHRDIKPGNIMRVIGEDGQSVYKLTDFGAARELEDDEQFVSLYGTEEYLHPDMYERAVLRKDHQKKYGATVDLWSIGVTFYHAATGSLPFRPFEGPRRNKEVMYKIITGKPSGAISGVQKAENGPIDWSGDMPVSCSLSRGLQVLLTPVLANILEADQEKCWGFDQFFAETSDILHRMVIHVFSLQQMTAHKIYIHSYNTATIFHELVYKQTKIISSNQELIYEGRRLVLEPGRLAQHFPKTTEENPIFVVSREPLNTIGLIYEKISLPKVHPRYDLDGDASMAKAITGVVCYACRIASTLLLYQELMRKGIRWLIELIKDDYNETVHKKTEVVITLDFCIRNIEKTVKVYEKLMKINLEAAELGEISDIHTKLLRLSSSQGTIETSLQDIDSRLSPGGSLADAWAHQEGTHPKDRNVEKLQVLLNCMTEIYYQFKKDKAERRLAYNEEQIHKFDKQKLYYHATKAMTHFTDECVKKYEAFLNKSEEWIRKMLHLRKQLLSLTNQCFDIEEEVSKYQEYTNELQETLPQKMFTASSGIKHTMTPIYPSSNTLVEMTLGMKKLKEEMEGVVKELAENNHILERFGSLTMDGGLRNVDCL
- test description: TBK1 TR-FRET enzymatic assay
Let's look at some compounds and their measured IC50.
The answer is to be given in nM; state only the numeric part.

N#Cc1cc(-c2ncnc(Nc3ccc(N4CCN(C5COC5)CC4)cc3)n2)ccc1O[C@H]1CCN(C(=O)[C@H](O)CO)C[C@H]1F: 2
C[C@@H](O)C(=O)N1CC[C@@H](Oc2ccc(-c3ncnc(Nc4ccc(N5CCN(C6COC6)CC5)cc4)n3)cc2C#N)C(F)(F)C1 (single isomer, unassigned): 79
N#Cc1cc(-c2ncnc(Nc3ccc(N4CCN(C5COC5)CC4)cc3)n2)ccc1OC1CCN(C(=O)c2ncc[nH]2)CC1: 5
C[C@H](O)C(=O)N1CC[C@H](Oc2ccc(-c3ncnc(Nc4ccc(C5CCN(C6COC6)CC5)c(F)c4)n3)cc2C#N)[C@H](F)C1: 4
C[C@H](O)C(=O)N1CC[C@H](Oc2ccc(-c3ncnc(Nc4ccc(C(C)(C)O)nc4)n3)cc2C#N)[C@H](F)C1: 3
C[C@@H]1CN(C2COC2)CCN1c1ccc(Nc2ncnc(-c3ccc(O[C@H]4CCN(C(=O)CO)C[C@H]4F)c(C#N)c3)n2)cc1: 2

IC50 in this record for Cc1c(Nc2ncnc(-c3ccc(O[C@H]4CCN(C(=O)[C@@H](O)CO)C[C@H]4F)c(C#N)c3)n2)cnn1C : 3

Entry under test: N#Cc1cc(-c2ncnc(Nc3ccc(N4CCN(C5COC5)CC4)c(F)c3)n2)ccc1O[C@H]1CCN(C(=O)CO)C[C@H]1F . Its IC50 was 1

Record summary for N#Cc1cc(-c2ncnc(Nc3ccc(N4CCN(C5COC5)CC4)cc3)n2)ccc1OC1CCN(C(=O)C2(O)CC2)CC1 : reported IC50 = 28

// recorded IC50 for CC(C)[C@H](Oc1ccc(-c2ncnc(Nc3ccc(N4CCN(C5COC5)CC4)cc3)n2)cc1C#N)C(N)=O : 94

Summary for this compound, C[C@H](O)C(=O)N1CC[C@H](Oc2ccc(-c3ncnc(Nc4ccc(N5CC(C)(O)C5)cc4)n3)cc2C#N)[C@H](F)C1 : IC50 is 2

The compound identified as Cc1c(Nc2ncnc(-c3ccc(O[C@H]4CCN(C(=O)[C@H](C)O)C[C@H]4F)c(C#N)c3)n2)cnn1C registered its IC50 at 14

IC50 measured on CC(=O)N[C@@H](C)C(=O)N1CC[C@H](Oc2ccc(-c3ncnc(Nc4ccc(N5CCN(C6COC6)CC5)cc4)n3)cc2C#N)[C@H](F)C1 = 508

Looking up N#Cc1cc(-c2ncnc(Nc3ccc(N4CCN(C5COC5)CC4)cc3)n2)ccc1O[C@@H]1CCN(C=O)C1 , I see its IC50 listed as 7

What the record says about COc1cc(Nc2ncnc(-c3ccc(O[C@H]4CCN(C(=O)[C@@H](O)CO)CC4(F)F)c(C#N)c3)n2)ccn1 : IC50 is 2

Sample N#Cc1cc(-c2ncnc(Nc3ccc(N4CCN(C5COC5)CC4)cc3)n2)ccc1O[C@H]1CCN(C(=O)c2coc(=O)[nH]2)C[C@H]1F ; IC50 observed: 3

====

- target of assay: UniProt:Q9UHD2
- test description: TBK1 TR-FRET enzymatic assay;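 further: phosphorylation of a biotinylated Ser/Thr peptide by purified full-length recombinant TBK1, read by TR-FRET after 240 min at 25 °C, IC50 is the geometric mean of at least four runs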
reported metric: pIC50
Lab note: report pIC50 as minus log10 of the concentration in molar units, number only.

UniProt:Q9UHD2 pIC50 of N#Cc1cc(-c2ncnc(Nc3ccc(N4CCOCC4)cc3)n2)ccc1NC(=O)[C@@H]1CCCN1 is 6.69

Field pIC50 (system: UniProt:Q9UHD2) for entry C[C@H](O)C(=O)N1CC[C@H](Oc2ccc(-c3ncnc(Nc4ccc(N5CCO[C@H](C(N)=O)C5)cc4)n3)cc2C#N)[C@H](F)C1 = 8.52

Entry C[C@H](O)C(=O)N1CC[C@H](Oc2ccc(-c3ncnc(Nc4ccc(C5CCN(C6COC6)CC5)cc4)n3)cc2C#N)[C@H](F)C1 : pIC50 on UniProt:Q9UHD2 = 8.52

Param item: N#Cc1cc(-c2ncnc(Nc3ccc(N4CCN(C5COC5)CC4)c(C#N)c3)n2)ccc1OC1CCOCC1 ; param system: UniProt:Q9UHD2; output pIC50: 8.52

Form field pIC50 for item Cc1cc(C(=O)N2CC[C@H](Oc3ccc(-c4ncnc(Nc5ccc(N6CCN(C7COC7)CC6)cc5)n4)cc3C#N)[C@H](F)C2)[nH]n1 on UniProt:Q9UHD2: 8.52
